System: HuP-T4 (Pancreatic Carcinoma)
measurement notes: combination Emax (second highest fraction inhibited in the dose matrix, 72 h); higher = more inhibition; extreme values may be limits of the assay
Given measured combination Emax, output yes if it is greater than or equal to 0.5 and no if not.

molecule: NC1(C(=O)N[C@@H](CCO)c2ccc(Cl)cc2)CCN(c2ncnc3[nH]ccc23)CC1 [Capivasertib] + CC(C)n1c(=O)n(C)c2cnc3cc(F)c(-c4ccc(OCCCN5CCCCC5)nc4)cc3c21 [AZD1390] (first compound max 10 µM, 7x7, partner max 0.3 µM)
system tested: HuP-T4 (Pancreatic Carcinoma)
group label: no
--
molecule: C=CCn1c(=O)c2cnc(Nc3ccc(N4CCN(C)CC4)cc3)nc2n1-c1cccc(C(C)(C)O)n1 [AZD1775] + C[C@@H]1COCCN1C2=NC(=NC(=C2)C3(CC3)[S@](=N)(=O)C)C4=C5C=CNC5=NC=C4 [AZD6738] (first compound max 1 µM, partner max 10 µM)
system tested: HuP-T4 (Pancreatic Carcinoma)
group label: yes
--
molecule: C[C@@H](c1ccc2nccn2c1)n1nnc2ncc(-c3cnn(C)c3)nc21 [Savolitinib] + CN(CC[C@H](CSC1=CC=CC=C1)NC2=C(C=C(C=C2)S(=O)(=O)NC(=O)C3=CC=C(C=C3)N4CCC(CC4)[C@H](C5=CC=CC=C5C6=CC=C(C=C6)Cl)O)S(=O)(=O)C(F)(F)F)CCO [AZD4320] (first compound max 1 µM, 7x7, partner max 1 µM)
system tested: HuP-T4 (Pancreatic Carcinoma)
group label: no
--
molecule: NC1(C(=O)N[C@@H](CCO)c2ccc(Cl)cc2)CCN(c2ncnc3[nH]ccc23)CC1 [Capivasertib] + CC(=O)c1c(C)c2cnc(Nc3ccc(N4CCNCC4)cn3)nc2n(C2CCCC2)c1=O [Palbociclib] (first compound max 10 µM, 7x7, partner max 10 µM)
system tested: HuP-T4 (Pancreatic Carcinoma)
group label: no
--
molecule: C[C@@H](c1ccc2nccn2c1)n1nnc2ncc(-c3cnn(C)c3)nc21 [Savolitinib] + Cc1c2c(nn1C)CSCc1cc(n(C)n1)CSc1cc(c3ccccc3c1)OCCCc1c(C(=O)O)n(C)c3c-2c(Cl)ccc13 [AZD5991] (first compound max 1 µM, 7x7, partner max 1 µM)
system tested: HuP-T4 (Pancreatic Carcinoma)
group label: no

Does COc1nnc2ccc(N3CCC(c4ccc(OCCN5CCN(C)C(=O)[C@H]5C)cc4)CC3)nn12 [AZD5153] + CC1(C)CCC(CN2CCN(c3ccc(C(=O)NS(=O)(=O)c4ccc(NCC5CCOCC5)c([N+](=O)[O-])c4)c(Oc4cnc5[nH]ccc5c4)c3)CC2)=C(c2ccc(Cl)cc2)C1 [Venetoclax] (first compound max 1 µM, 7x7, partner max 1 µM) have a reported combination Emax of at least 0.5? no

Same thing, different molecule: CN(CCO)CC[C@H](CSc1ccccc1)Nc1ccc(S(=O)(=O)NC(=O)c2ccc(N3CCC([C@@H](O)c4ccccc4-c4ccc(Cl)cc4)CC3)cc2)cc1S(=O)(=O)C(F)(F)F [AZD4320] + C[C@@H](Nc1cc(F)cc(F)c1)c1cc(C(=O)N(C)C)cc2c(=O)cc(N3CCOCC3)oc12 [AZD8186] (first compound max 1 µM, 7x7, partner max 3 µM) yes

====

Tested on: NOS-1 (Osteosarcoma);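 also: after 72 h of two-drug dosing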
measurement notes: Bliss excess, mean over the matrix (fraction); higher = more synergy
Each item that follows carries a reported Bliss excess.
Just the number, please, no unit attached.

molecule: CCc1c2c(nc3ccc(O)cc13)-c1cc3c(c(=O)n1C2)COC(=O)[C@]3(O)CC [SN-38] + O=C(c1cc(Cc2n[nH]c(=O)c3ccccc23)ccc1F)N1CCN(C(=O)C2CC2)CC1 [Olaparib] (first compound max 0.3 µM, 7x7, partner max 10 µM)
Bliss excess: -0.0251

molecule: COc1cccc(OCCCN)c1-c1cc(Nc2cnc(C#N)cn2)n[nH]1 [Prexasertib] + Cc1cc2ncnn2cc1Nc1ncc2c(n1)n(C1CCOCC1)c(=O)n2C [AZD7648] (first compound max 1 µM, 7x7, partner max 10 µM)
Bliss excess: 0.0514

molecule: CN(CCO)CC[C@H](CSc1ccccc1)Nc1ccc(S(=O)(=O)NC(=O)c2ccc(N3CCC([C@@H](O)c4ccccc4-c4ccc(Cl)cc4)CC3)cc2)cc1S(=O)(=O)C(F)(F)F [AZD4320] + C=CCn1c(=O)c2cnc(Nc3ccc(N4CCN(C)CC4)cc3)nc2n1-c1cccc(C(C)(C)O)n1 [AZD1775] (first compound max 1 µM, partner max 1 µM)
Bliss excess: 0.0894

molecule: Cc1nc(Nc2ncc(C(=O)Nc3c(C)cccc3Cl)s2)cc(N2CCN(CCO)CC2)n1 [Dasatinib] + CC(=O)Nc1cccc(-n2c(=O)n(C3CC3)c(=O)c3c(Nc4ccc(I)cc4F)n(C)c(=O)c(C)c32)c1 [Trametinib] (first compound max 2 µM, 7x7, partner max 1 µM)
Bliss excess: 0.0688

molecule: CN(CCO)CC[C@H](CSc1ccccc1)Nc1ccc(S(=O)(=O)NC(=O)c2ccc(N3CCC([C@@H](O)c4ccccc4-c4ccc(Cl)cc4)CC3)cc2)cc1S(=O)(=O)C(F)(F)F [AZD4320] + C[C@@H](Nc1cc(F)cc(F)c1)c1cc(C(=O)N(C)C)cc2c(=O)cc(N3CCOCC3)oc12 [AZD8186] (first compound max 1 µM, 7x7, partner max 3 µM)
Bliss excess: -0.0096

Please report the recorded Bliss excess for C[C@@H](c1ccc2nccn2c1)n1nnc2ncc(-c3cnn(C)c3)nc21 [Savolitinib] + CN(CC[C@H](CSC1=CC=CC=C1)NC2=C(C=C(C=C2)S(=O)(=O)NC(=O)C3=CC=C(C=C3)N4CCC(CC4)[C@H](C5=CC=CC=C5C6=CC=C(C=C6)Cl)O)S(=O)(=O)C(F)(F)F)CCO [AZD4320] (first compound max 1 µM, 7x7, partner max 1 µM) . -0.0137
